tested on: SN12C renal; experiment: NCI tumour cell line growth inhibition, 48 h
In this section we review reported TGI values for a set of compounds.

Past entries and their recorded results:
Compound	TGI
N#CC1(C#N)C(c2ccccc2)C=CC(c2ccc([N+](=O)[O-])cc2)C1(C#N)C#N (centres undefined)	12.2 µM
CCOC(=O)c1cc(C#N)[nH]c1-c1ccsc1	> 100 µM
O=C(Nc1ccc(Cl)cc1)NS(=O)(=O)c1c(-c2ccccc2)oc2ccccc2c1=O	> 100 µM

Note: attention shifts to another entry.
Ask: I'd like to know its TGI. The compound in question is `CCn1c2ccccc2c2cc(NC(=O)c3c(NCCNCCO)nc(=O)[nH]c3C)ccc21`
Reply: > 100 µM
